Task for the reader: assign each of the following molecules its reported pKd.
target: Recombinant Human Her2/ErbB2 Protein (Homo sapiens); assay: Microscale thermophoresis
Sequence (P04626 23-1255): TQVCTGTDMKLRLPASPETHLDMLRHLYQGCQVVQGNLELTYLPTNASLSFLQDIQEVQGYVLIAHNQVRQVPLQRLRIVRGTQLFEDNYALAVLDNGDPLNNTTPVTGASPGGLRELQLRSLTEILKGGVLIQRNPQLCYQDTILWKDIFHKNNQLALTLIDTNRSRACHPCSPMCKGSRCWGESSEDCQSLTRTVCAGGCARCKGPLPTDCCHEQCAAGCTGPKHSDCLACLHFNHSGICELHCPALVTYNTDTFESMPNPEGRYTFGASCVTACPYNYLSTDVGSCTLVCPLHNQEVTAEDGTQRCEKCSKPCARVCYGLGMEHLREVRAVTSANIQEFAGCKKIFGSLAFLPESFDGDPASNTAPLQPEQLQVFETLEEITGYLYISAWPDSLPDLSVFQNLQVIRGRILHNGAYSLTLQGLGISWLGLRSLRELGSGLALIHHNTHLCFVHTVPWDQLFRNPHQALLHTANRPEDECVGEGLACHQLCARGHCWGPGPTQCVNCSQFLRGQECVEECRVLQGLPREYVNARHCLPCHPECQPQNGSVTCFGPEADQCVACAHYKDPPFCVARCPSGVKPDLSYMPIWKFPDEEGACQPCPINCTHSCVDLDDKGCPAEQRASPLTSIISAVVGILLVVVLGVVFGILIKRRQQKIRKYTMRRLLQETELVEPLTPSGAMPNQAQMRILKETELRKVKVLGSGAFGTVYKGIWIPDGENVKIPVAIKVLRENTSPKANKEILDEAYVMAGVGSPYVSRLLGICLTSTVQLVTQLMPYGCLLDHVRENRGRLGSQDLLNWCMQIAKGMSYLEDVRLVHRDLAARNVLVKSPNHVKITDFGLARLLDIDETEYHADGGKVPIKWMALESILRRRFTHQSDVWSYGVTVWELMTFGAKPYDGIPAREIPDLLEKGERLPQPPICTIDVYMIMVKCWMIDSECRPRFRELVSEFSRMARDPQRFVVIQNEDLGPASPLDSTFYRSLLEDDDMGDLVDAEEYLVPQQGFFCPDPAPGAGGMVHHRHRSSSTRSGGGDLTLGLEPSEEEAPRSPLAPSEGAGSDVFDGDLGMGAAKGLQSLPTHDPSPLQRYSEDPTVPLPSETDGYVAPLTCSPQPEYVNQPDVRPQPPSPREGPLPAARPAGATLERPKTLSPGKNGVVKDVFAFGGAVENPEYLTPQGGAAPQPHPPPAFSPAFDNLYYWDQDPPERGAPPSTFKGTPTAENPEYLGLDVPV
Answer as the number alone; pKd is minus log10 of concentration in mol/L.

Query: Please give the measured pKd for this molecule: O=c1c(-c2ccc(O)cc2)coc2cc(O)ccc12 [Daidzein]
Response: 5.43

Query: Note, next up: O=c1c(O)c(-c2ccc(O)c(O)c2)oc2cc(O)cc(O)c12 [Quercetin]
Response: 6.31
